EC50 for assorted compounds
# systemName: Human M4 (Homo sapiens)
# Sequence (P08173 whole entry): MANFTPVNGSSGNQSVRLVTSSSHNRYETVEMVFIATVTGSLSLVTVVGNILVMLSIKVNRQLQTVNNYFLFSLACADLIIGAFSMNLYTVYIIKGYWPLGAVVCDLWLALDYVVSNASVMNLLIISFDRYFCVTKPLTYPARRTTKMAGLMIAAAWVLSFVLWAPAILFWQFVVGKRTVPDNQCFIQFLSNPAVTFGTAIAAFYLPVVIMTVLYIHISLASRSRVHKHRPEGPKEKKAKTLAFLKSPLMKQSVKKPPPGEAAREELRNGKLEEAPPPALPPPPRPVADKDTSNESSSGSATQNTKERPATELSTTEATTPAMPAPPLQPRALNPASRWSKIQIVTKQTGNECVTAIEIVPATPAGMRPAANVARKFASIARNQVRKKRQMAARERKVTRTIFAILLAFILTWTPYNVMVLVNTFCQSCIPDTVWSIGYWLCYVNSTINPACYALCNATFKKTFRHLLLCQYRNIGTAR
# method: mAChR M4 cell-based functional assay (calcium flux, PAM mode)
# studyConditions: hM4-Gqi5 CHO-K1 cells; concentration-dependent increase in the EC20 acetylcholine response
property: EC50 (nM)

>>> reportedvalue("[2H]C1([2H])Oc2ccc(OC3CCN(c4nn5c(=O)cc(CC)nc5c(C)c4C)CC3)cc2OC1([2H])[2H] [Compound 100]")
52
>>> reportedvalue("[2H]C1([2H])Oc2ccc(OC3CCN(c4nn5c(=O)cc(C(F)(F)F)nc5c(C)c4C)CC3)cc2OC1([2H])[2H] [Compound 7]")
70
>>> reportedvalue("Cc1c(N2CCC(Oc3ccc4c(c3)OCCO4)CC2)nn2c(=O)ccnc2c1C [Compound 71]")
21
>>> reportedvalue("Cc1ccc(OC2CCN(c3nn4c(=O)ccnc4cc3C)CC2)cc1F [Compound 88]")
383
>>> reportedvalue("Cc1c(N2CCC(Oc3ccc(F)cc3)CC2)nn2c(=O)cc(C(F)F)nc2c1C [Compound 84]")
141
>>> reportedvalue("Cc1cc2nc(C)c(F)c(=O)n2nc1N1CC[C@@H](Oc2ccc3c(c2)OCCO3)[C@H](F)C1 [Compound 36]")
40
>>> reportedvalue("[2H]C1([2H])Oc2cc(OC3CCN(c4nn5c(=O)c(Cl)cnc5cc4C)CC3)cc(C)c2OC1([2H])[2H] [Compound 27]")
108
>>> reportedvalue("CCCc1ccc(OC2CCN(c3nn4c(=O)ccnc4cc3C)CC2)cc1 [Compound 91]")
1070
>>> reportedvalue("[2H]C1([2H])Oc2cc(O[C@H]3CCN(c4nn5c(=O)ccnc5cc4C)[C@H](C)C3)cc(F)c2OC1([2H])[2H] [Compound 130]")
160
>>> reportedvalue("Cc1cc2nccc(=O)n2nc1N1CC[C@@H](Oc2ccc3c(c2)OCCCO3)[C@H](F)C1 [Compound 55]")
135
>>> reportedvalue("Cc1ccc(OC2CCN(c3nn4c(=O)ccnc4c(C)c3C)CC2)cc1 [Compound 77]")
91
>>> reportedvalue("[2H]C1([2H])Oc2ccc(OC3CCN(c4nn5c(=O)c(N6CCC6)cnc5cc4C)CC3)cc2OC1([2H])[2H] [Compound 35]")
153
>>> reportedvalue("[2H]C1(Oc2ccc3c(c2)OC([2H])([2H])C([2H])([2H])O3)CCN(c2nn3c(=O)ccnc3c(C3CC3)c2C)CC1 [Compound 97]")
424
>>> reportedvalue("[2H]C1(Oc2ccc3c(c2)OCCCO3)CCN(c2nn3c(=O)cc(C)nc3cc2C)CC1 [Compound 59]")
59
>>> reportedvalue("Cc1cc2nc(C)c(F)c(=O)n2nc1N1CC[C@H](Oc2ccc3c(c2)OCCO3)[C@@H](F)C1 [Compound 37]")
134
